# assayOverview: yeast display, Sf9 membrane polyspecificity reagent, FACS + sequencing; frameworks hold sequencing errors
measuredEndpoint: polyreactivity (PSR sort gate)

{"residues": "QVQLVESGGGLVQAGGSLRLSCAASGFISHYYAMGWYRQAPGKERELVAAIRISGDRTYYADSVKGRFTISRDNAKNTVYLQMNSLKPEDTAVYYCNAVWEYYGKSDYWGQGTQVTVSS", "observedResult": "low polyreactivity"}
{"residues": "QVQLVDSGGGLVQAGGSLRLSCAASGSTFKIYAMGWYRQAPGKERELVARITSGGSTNYADSVKGRFTISRDNAKNTVYLQMNSLKPEDTAVYYCAARRWSYSTRGQRSSNLDYWGHGTQVTVSS", "observedResult": "high polyreactivity"}
{"residues": "QVQLVESGGGLVQAGGSLRLSCAASGITFFIYAMGWYRQAPGKQRELFAAIRSGGSTNYADSVKGRFTISRDNAQNTVYLQMNSLKPEDTSVFYCAADVYGTVRRVGWYYVGEGYDYWGQGTQVTVSS", "observedResult": "low polyreactivity"}
{"residues": "QVQLVESGGGLVQAGGSLRLSCAASGFTFRDYAMGWYRQAPGKERELVAVISDSGGRTYYADSVKGRFTISRDNAKNTVYLQMNSLKPEDTAVYYCAARGYRSGGGYNYWGQGTQVTVSS", "observedResult": "high polyreactivity"}
{"residues": "QVQLVESGGGLVQAGGSLRLSCAASGFTFGLYTMGWYRQAPGKERELVAAITSSGARTYYADSVKGRFTISRDNAKNTVNLQMNSLKPEDTAVYYCNAGKRGSTYYYWGQGTQVTVSS", "observedResult": "high polyreactivity"}
{"residues": "QVQHVESGGGLVQAGGSLRLSCAASGSTYNGYAMGWYRQATGKERELVAAISTSGGSTYYADSVKGRFTISRDNAKNTVYLQMNSLKPEDTAVYYCATYYGKRYMRRVDYWGQGTQVTVSS", "observedResult": "high polyreactivity"}
{"residues": "QVQLVESGGGLVQAGGSLRLSCAASGRIFVQYDMGWYRQAPGKERELVAAINDSGDITYYADSVKGRFTISRDNAKNTVYLQMNSLRPEDTAVYYCAASAAYYGFYKSVTYDYWGQGTQVTVSS", "observedResult": "low polyreactivity"}
{"residues": "QVQLVESGGGLVQAGGSLRLSCAASGSTFRFYGMGWYRQAPGKERELVAAITYRSGITYADSGKGGFSISRDNANNTVYLLMNSLKPEETAVYYCAARARRYTDEYDYWGQGTQVTVSS", "observedResult": "low polyreactivity"}
{"residues": "QVQLVESGGGLVQAGGSLRLSCAASGGTFSLNAMGWYRQAPGKEREFVAGITWGGGRTYYADSVKGRFTISRDNAKNTVYLQMNSLKPEDTAVYYCAAGAWRGPYSGYYYWGQGTQVTVSS", "observedResult": "low polyreactivity"}
{"residues": "QVQLGESGGGLVQAVGSLRLSCAASGITFVYYAMGWSRQEPGKERELVSSISSADNTNYADSVKGRFTISRDNAKNTVYLQMNSLKPEDTAVYYCAADYWWHLRHYSTGGYWGQGTQVTVSS", "observedResult": "low polyreactivity"}
{"residues": "QVQLVESGGGLVQPGGSLRLSCAASGRIQRYYAMGWYRQAPGKERELVAVITSSDGSTYYADSVKGRFTISRDNAKNTVYLQMNRLKPEDTAVYYCAAAPLWRLASWWDPYRRYDYWGQGTLVTVSS", "observedResult": "low polyreactivity"}
{"residues": "QVHLVESGRGFVQAGGSLRLSCAASAFTFHSYAMGWYRQAPGKERELVASISSSGSTNYADSVKGRFTISRDNEKNTVYLQMISLKPEDTAVSYCAAESRYPFIYEYWGQVTQVTVSS", "observedResult": "low polyreactivity"}
{"residues": "QVQLVESGGGLVQAGGSLRLSCASSGSTFSANTKGWYRQAPGKERELVAAINSSGGSSTYYADSVKGRFTISRDNAKNTVYLQMKSLKPEDTAVYYCAAENSVPRGVLGGEFDYWGQGTQVTVSS", "observedResult": "low polyreactivity"}
{"residues": "QVQLVESGGGLVQAGGSLRLSCAASGRIFNVNALGWYRQAPGKERELVAAINWSGGRTYYADSVKGRFTISRDNAKNTVYLQLNSLKPEDTAVYYCAADTRYPYRAYDYWGQGTQVTVAS", "observedResult": "high polyreactivity"}
{"residues": "QVQLVESGGGLVQAGGSLRLSCAASGRNFRSYAMGWYRQAPGKERELVAAIRRGGSTNYADSVKGRFTISRDNAKNTVYLQMNSLNPEDTAVYYCAARGWSYRSVGYMDYWGQGTQVTVSS", "observedResult": "high polyreactivity"}
{"residues": "QVQLVESGGGLVQAGGSLRLSCAASGRTFNKYAMGWYRQAPGKERELVAAIRDGSGGRTNYADSVKGRFTISRDNAKNTVYLQMNSLKPEDTAVYYCNADDSKYPYYTDDYWGQGTQVTVSS", "observedResult": "low polyreactivity"}
{"residues": "QVQLVESGGGLVQAGGSLRLSCAASGRIFTYNPMGWYRQAPGKERELVAVISRRGGSTYYADSVKGRFTISRDNAKNTVYLQMNSLKPEDTAVYYCAADLPSYPYEYWGQGTQVTVSS", "observedResult": "low polyreactivity"}
{"residues": "PVQLVESGGGLVQAGGSLRLSCAASGFTFPNYAMGWYRQAPGKERELVAVITYSGGSTYYADTVKGRFTISRDNAKNTVYLQMNRLKPEDTAVYYCNARYPGSWYFGQYGGYDYGYWGQGTQVTVSS", "observedResult": "low polyreactivity"}
{"residues": "QVQLVESGGGLVQAGGSLRLSCAASGRIFLYYAMGWYRQAPGKERELVATISSGGSTHYADSVKGRFTISRDNAKNTVYLQMNSLKPEDTAVYYCAAYGYGWGLEPSTTEMDYWGQGTQVTVSS", "observedResult": "low polyreactivity"}
{"residues": "QVQLVESGGGLVKAGGSLRLSCAASGITFWRYTMGWYRQAPGIERELVAAITSRGGNTYYADSVKGRFTISRDNAKNTVYLQLNSLKPEDTAVNYCNADRYNKYWYDYWGQGTQVTVSS", "observedResult": "high polyreactivity"}
{"residues": "QVQLVESGGGLVQAGGSLRLTCAASGLIFYDNMGWYRQEPGKQRELVAAITVSGGATYYADSVKGRFTISRDNAKNTVYLQMNSLKTEDTAVFYCARELLSPTYQRWYYYWGQGTQVTVSS", "observedResult": "low polyreactivity"}
